# ASSAY_TARGET: UniProtKB Q9Y5N5
# ASSAY_INFO: KMT9 methyltransferase inhibition assay, MTaseGlo luminescence (from entry 155)
# Assay type: biochemical
# RUN_CONDITIONS: from entry 155: MTaseGlo assay, 100 nM KMT9, 5 μM ETF1, 1 μM SAM; read-out: Inhibition
pIC50: −log10 of the molar value.
RECORDED_METRIC: pIC50

Q: What does the record list as pIC50 for Nc1ncnc2c1ccn2[C@@H]1C[C@H](c2cc(Cl)cc(Cl)c2)[C@@H](O)[C@H]1O ?
Ans: < 5.00

Q: What would you report for O[C@@H]1[C@@H](CNCCCNCCc2ccccc2)C[C@@H](n2cc(-c3nc(Cc4ccccc4)cs3)c3cncnc32)[C@@H]1O ?
Ans: 5.00 to 6.00

Q: What would you report for CCc1cn([C@@H]2C[C@H](CNCCCNCCc3ccc(F)cc3F)[C@@H](O)[C@H]2O)c2ncnc(N)c12 ?
Ans: 5.00 to 6.00

Q: What would you report for Nc1ncnc2c1ccn2[C@@H]1C[C@H](c2ccc3ccccc3c2)[C@@H](O)[C@H]1O ?
Ans: < 5.00

Q: What would you report for Nc1ncnc2c1c(-c1nc(Cc3ccccc3)cs1)cn2[C@@H]1C[C@H](C2=CCCNC2)[C@@H](O)[C@H]1O ?
Ans: 5.00 to 6.00

Q: What would you report for O[C@@H]1[C@@H](CN(CCCNCCc2ccccc2)c2cn[nH]c2)C[C@@H](n2cc(-c3cccs3)c3cncnc32)[C@@H]1O ?
Ans: 5.00 to 6.00

Q: What would you report for Nc1ncnc2c1c(-c1nc(Cc3ccccc3)cs1)cn2[C@@H]1C[C@H]([C@H]2CCCNC2)[C@@H](O)[C@H]1O (single isomer, unassigned) [Compound 593S] ?
Ans: 5.00 to 6.00

Q: What would you report for Nc1ncnc2c1ccn2[C@@H]1C[C@H](c2ccccc2)[C@@H](O)[C@H]1O ?
Ans: < 5.00

Q: What would you report for CCc1cn([C@@H]2C[C@H](CNCCCNCCc3ccc(C(F)(F)F)cc3)[C@@H](O)[C@H]2O)c2ncnc(N)c12 ?
Ans: 5.00 to 6.00

Q: What would you report for O[C@@H]1[C@@H](CNCCCNCCc2ccccc2)C[C@@H](n2cc(-c3cc(Cc4ccccc4)cs3)c3cncnc32)[C@@H]1O ?
Ans: 5.00 to 6.00

Q: What would you report for O[C@@H]1[C@@H](CNCCCNCCc2ccccc2)C[C@@H](n2cc(-c3nccs3)c3cnc(Cl)nc32)[C@@H]1O ?
Ans: 5.00 to 6.00

Q: What would you report for Nc1ncnc2c1c(-c1nccs1)cn2[C@@H]1C[C@H](c2ccccc2)[C@@H](O)[C@H]1O ?
Ans: < 5.00

Q: What would you report for O[C@@H]1[C@@H](CNCCCNCCc2ccccc2)C[C@@H](n2cc3c4c(ncnc42)NCCC3)[C@@H]1O ?
Ans: 5.00 to 6.00

Q: What would you report for O[C@@H]1[C@@H](CNCCCNCCc2ccccc2)C[C@@H](n2cc(-c3cc(Cc4ccccc4)ns3)c3cncnc32)[C@@H]1O ?
Ans: 5.00 to 6.00

Q: What would you report for Nc1nc(Cl)nc2c1c(-c1nc(Cc3ccccc3)cs1)cn2[C@@H]1C[C@H](CNCCCNCCc2ccccc2)[C@@H](O)[C@H]1O ?
Ans: 6.00 to 7.00

Q: What would you report for Nc1ncnc2c1c(-c1nc(Cc3ccccc3)cs1)cn2[C@@H]1C[C@H]([C@@H]2CCCNC2)[C@@H](O)[C@H]1O (single isomer, unassigned) [Compound 593R] ?
Ans: 5.00 to 6.00

Q: What would you report for CCc1cn([C@@H]2C[C@H](CNCCCNCCc3ccc(F)cc3)[C@@H](O)[C@H]2O)c2ncnc(N)c12 ?
Ans: 5.00 to 6.00

* * *

Please provide measured Kd for the entries that follow.
# ASSAY_TARGET: KMT9 (Homo sapiens, UniProt Q9Y5N5)
# Sequence (Q9Y5N5 whole entry): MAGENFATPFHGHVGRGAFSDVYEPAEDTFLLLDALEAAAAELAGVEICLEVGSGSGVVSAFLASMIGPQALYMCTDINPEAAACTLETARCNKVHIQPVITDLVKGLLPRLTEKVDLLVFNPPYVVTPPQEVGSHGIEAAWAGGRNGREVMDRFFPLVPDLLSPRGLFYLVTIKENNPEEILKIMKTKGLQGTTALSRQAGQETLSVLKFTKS
# Sequence (Q9UI30 1-120 isoform Q9UI30-2 partner): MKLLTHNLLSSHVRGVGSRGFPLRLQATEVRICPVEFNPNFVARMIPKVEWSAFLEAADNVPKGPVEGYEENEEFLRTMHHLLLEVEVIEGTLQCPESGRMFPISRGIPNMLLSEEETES
# ASSAY_INFO: Microscale thermophoresis (MST) KMT9 binding
# RUN_CONDITIONS: microscale thermophoresis, His-tag labelled KMT9 (20 nM); read-out: MST
# Protocol: To determine the binding affinity of the compounds according to the present invention and KMT9, microscale thermophoresis (MST) analysis was performed with a NanoTemper Monolith NT.115 instrument (NanoTemper Technologies GmbH). KMT9 was labelled with a RED-Tris-NTA labelling kit (NanoTemper Technologies GmbH) based on the manufacturer's instructions. Buffer including 25 mM HEPES (pH 7.5), 100 mM NaCl, 1 mM DTT and 0.05% Tween was used for the reaction buffer. […]

Q: What does the record list as Kd for Nc1ncnc2c1ccn2[C@@H]1C[C@H](c2cc(Cl)cc(Cl)c2)[C@@H](O)[C@H]1O ?
Ans: > 1000 nM

Q: What would you report for CNc1ncnc2c1ccn2[C@@H]1C[C@H](C[S+]([O-])CCCNCCc2ccccc2)[C@@H](O)[C@H]1O (some centres unmarked) ?
Ans: > 1000 nM

Q: What would you report for Nc1ncnc2c1ncn2[C@@H]1O[C@H](C(=O)NCCCNCCc2ccc(Oc3ccccc3)cc2)[C@@H](O)[C@H]1O ?
Ans: 100 to 1000 nM

Q: What would you report for Nc1ncnc2c1ncn2[C@@H]1O[C@H](C(=O)NCCCNCCc2cccc(Oc3ccccc3)c2)[C@@H](O)[C@H]1O ?
Ans: 100 to 1000 nM

Q: What would you report for CNc1ncnc2c1ccn2[C@@H]1C[C@H](CNCCCNCCc2cccc(N(C)c3ccccc3)c2)[C@@H](O)[C@H]1O ?
Ans: > 1000 nM

Q: What would you report for Nc1ncnc2c1ccn2[C@@H]1C[C@H](c2ccncc2)[C@@H](O)[C@H]1O ?
Ans: > 1000 nM

Q: What would you report for Nc1ncnc2c1c(-c1nc(Oc3ccccc3)cs1)cn2[C@@H]1C[C@H](CNCCCNCCc2ccccc2)[C@@H](O)[C@H]1O ?
Ans: 10 to 100 nM

Q: What would you report for Nc1ncnc2c1ncn2[C@@H]1O[C@H](C(=O)NCCCNC(=O)Cc2ccccc2)[C@@H](O)[C@H]1O ?
Ans: > 1000 nM

Q: What would you report for CNc1ncnc2c1ccn2[C@@H]1C[C@H](C#CCNCCc2ccccc2)[C@@H](O)[C@H]1O ?
Ans: > 1000 nM

Q: What would you report for CCc1cn([C@@H]2C[C@H](CNCCCNCCc3ccccc3)[C@@H](O)[C@H]2O)c2ncnc(C)c12 ?
Ans: > 1000 nM

Q: What would you report for CNc1ncnc2c1ccn2[C@@H]1C[C@H](CCCCNCCc2ccccc2)[C@@H](O)[C@H]1O ?
Ans: > 1000 nM

Q: What would you report for CCc1cn([C@@H]2C[C@H](CNCCCNCCc3ccc(C(F)(F)F)cc3)[C@@H](O)[C@H]2O)c2ncnc(N)c12 ?
Ans: 100 to 1000 nM

Q: What would you report for CNc1ncnc2c1ccn2[C@@H]1C[C@H](CN(CCCNCCc2ccccc2)c2cc[nH]n2)[C@@H](O)[C@H]1O ?
Ans: > 1000 nM

Q: What would you report for CNc1ncnc2c1ccn2[C@@H]1C[C@H](CN(CCCN)c2cncs2)[C@@H](O)[C@H]1O ?
Ans: > 1000 nM

Q: What would you report for CNc1ncnc2c1c(C)cn2[C@@H]1O[C@H](CNCCCNCCc2ccccc2)[C@@H](O)[C@H]1O ?
Ans: > 1000 nM

Q: What would you report for Nc1ncnc2c1c(-c1ncns1)cn2[C@@H]1C[C@H](CNCCCNCCc2ccccc2)[C@@H](O)[C@H]1O ?
Ans: 100 to 1000 nM

Q: What would you report for CCc1cn([C@@H]2C[C@H](CNCCCNCCc3ccccc3)[C@@H](O)[C@H]2O)c2ncncc12 ?
Ans: 100 to 1000 nM

Q: What would you report for Nc1ncnc2c1ccn2[C@@H]1C[C@H](c2cccs2)[C@@H](O)[C@H]1O ?
Ans: > 1000 nM

Q: What would you report for Nc1ncnc2c1ccn2[C@@H]1C[C@H](CN(CCCNCCc2ccc(F)cc2)c2c[nH]nc2Br)[C@@H](O)[C@H]1O ?
Ans: ≤ 10 nM

Q: What would you report for Nc1ncnc2c1c(-c1nccs1)cn2[C@@H]1C[C@H](CNCCCNCCc2ccccc2)[C@@H](O)[C@H]1O ?
Ans: 10 to 100 nM

Q: What would you report for Nc1ncnc2c1c(I)cn2[C@@H]1C[C@H](CNCCCNCCc2ccccc2)[C@@H](O)[C@H]1O ?
Ans: 100 to 1000 nM

Q: What would you report for CCC(=O)NCCNC[C@H]1O[C@@H](n2cnc3c(N)ncnc32)[C@H](O)[C@@H]1O ?
Ans: > 1000 nM

Q: What would you report for CNc1ncnc2c1ccn2[C@@H]1C[C@H](C(=O)NCCCNCc2cccc(Oc3ccccc3)c2)[C@@H](O)[C@H]1O ?
Ans: 100 to 1000 nM

Q: What would you report for C=Cc1cn([C@@H]2C[C@H](CNCCCNCCc3ccccc3)[C@@H](O)[C@H]2O)c2ncnc(C)c12 ?
Ans: > 1000 nM

Q: What would you report for Nc1ncnc2c1ncn2[C@@H]1O[C@H](C(=O)NC2CCN(CCc3ccccc3)CC2)[C@@H](O)[C@H]1O ?
Ans: > 1000 nM

Q: What would you report for CCc1cn([C@@H]2C[C@H](CNCCCNCCc3ccc(F)cc3)[C@@H](O)[C@H]2O)c2ncnc(N)c12 ?
Ans: 100 to 1000 nM

Q: What would you report for Nc1ncnc2c1c(Br)cn2[C@@H]1C[C@H](CNCCCNCCc2ccc(C(F)(F)F)cc2)[C@@H](O)[C@H]1O ?
Ans: 100 to 1000 nM

Q: What would you report for CNc1ncnc2c1ccn2[C@@H]1C[C@H](CN2CCC23CNC3)[C@@H](O)[C@H]1O ?
Ans: > 1000 nM

Q: What would you report for Nc1ncnc2c1c(Br)cn2[C@@H]1C[C@H](CNCCCNCCc2ccccc2)[C@@H](O)[C@H]1O ?
Ans: 10 to 100 nM
